# protocol_conditions: in water, 283.15 K
reported_property: solubility (mole fraction)
# answer = number (no unit)

Challenge: Look up solubility (mole fraction): CNc1nc(C)nc(OC)n1
Response given: 3.05e-06

* * *

# protocol_conditions: in methanol, 278.15 K
reported_property: solubility (mole fraction)

Challenge: Look up solubility (mole fraction): CNc1nc(C)nc(OC)n1
Response given: 0.0666

* * *

# protocol_conditions: in methanol, 303.15 K
reported_property: solubility (mole fraction)
# answer = number (no unit)

Challenge: Look up solubility (mole fraction): CNc1nc(C)nc(OC)n1
Response given: 0.123

* * *

# protocol_conditions: in DMF, 278.15 K
reported_property: solubility (mole fraction)
# answer = number (no unit)

Challenge: Look up solubility (mole fraction): CNc1nc(C)nc(OC)n1
Response given: 0.199
